biological target: human GLP1-R (Homo sapiens); experiment: GLP1-R internalization assay in HEK293 cells; type: cell-based; details: HEK293 cells expressing SNAP-GLP-1R; read-out: GLP1R Internalization EC50
Sequence (P43220 24-463): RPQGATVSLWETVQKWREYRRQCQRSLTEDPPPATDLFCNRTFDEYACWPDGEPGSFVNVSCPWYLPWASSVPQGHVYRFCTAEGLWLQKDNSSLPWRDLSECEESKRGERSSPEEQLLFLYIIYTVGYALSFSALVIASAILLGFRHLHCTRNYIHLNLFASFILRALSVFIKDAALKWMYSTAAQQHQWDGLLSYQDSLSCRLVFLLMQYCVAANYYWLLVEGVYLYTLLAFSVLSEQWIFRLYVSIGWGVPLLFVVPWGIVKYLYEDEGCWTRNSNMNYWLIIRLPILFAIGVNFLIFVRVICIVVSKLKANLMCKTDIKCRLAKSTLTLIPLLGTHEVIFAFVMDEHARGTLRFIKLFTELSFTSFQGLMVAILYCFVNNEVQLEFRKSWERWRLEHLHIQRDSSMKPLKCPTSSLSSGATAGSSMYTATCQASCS
Starred links: 1 amine or outer side, 2 acyl side, 3 side chain; linkers in the order of their positions; H or OH if unused. Non-standard residues stand in square brackets, D forms with d. Groups on a side chain read outwards from the residue. No end group written: not given here. *: point of attachment. C20 diacid = O=C(O)CCCCCCCCCCCCCCCCCCC(=O)*; C18 diacid = O=C(O)CCCCCCCCCCCCCCCCC(=O)*; γGlu = O=C(O)[C@H](CCC(=O)[*:2])N[*:1]; 4Pal = N[C@@H](Cc1ccncc1)C(=O)O; αMeL = CC(C)C[C@](C)(N)C(=O)O; Orn = NCCC[C@H](N)C(=O)O; AEEA = NCCOCCOCC(=O)O; Aib = CC(C)(N)C(=O)O
Condition met if EC50 is below 60 nM. Condition not met if not; exact matches included in Condition not met.

Y[Aib]QGTFTSDFS[Orn][αMeL]LDKK([AEEA-AEEA-γGlu-C18 diacid])AQ[Aib]AFIEYLLE[dA]GPSSGHPPPSGH-NH2 [Example 255]    Condition met
H-Y[Aib]QGTFTSDFS[Orn][αMeL]LDKK([AEEA-γGlu-C18 diacid])AQ[Aib]AFIEYLLAGGPSSGAPPPSGD-NH2 [Example 85]    Condition not met
Y[Aib]QGTFTSD[4Pal]SK[αMeL]LDKK([AEEA-γGlu-C20 diacid])AQ[Aib]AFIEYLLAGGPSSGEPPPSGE-NH2 [Example 28]    Condition not met
Y[Aib]QGTFTSDFS[Orn][αMeL]LDKK([AEEA-AEEA-γGlu-C18 diacid])AQ[Aib]AFIEYLLE[dA]GPSSGEPPPSEG-NH2 [Example 116]    Condition not met

Now for a further substance.
Dear colleague, could you confirm whether EC50 of H-Y[Aib]QGTFTSDFSK[αMeL]LDKK([AEEA-γGlu-C20 diacid])AQ[Aib]AFIEYLLAGGPSSGEPPPSSG-NH2 [Example 7] falls below 60 nM? Thanks.
Condition met
